testedSystem: human glucagon receptor (human, UniProt P47871)
assayDetails: cell-based or functional assay
Starred links: 1 amine or outer side, 2 acyl side, 3 side chain; linkers in the order of their positions; H or OH if unused. Non-standard residues stand in square brackets, D forms with d. Groups on a side chain read outwards from the residue. Primed or numbered codes have the meaning given here. No end group written: not given here. *: point of attachment. C20 diacid = O=C(O)CCCCCCCCCCCCCCCCCCC(=O)*; γGlu = O=C(O)[C@H](CCC(=O)[*:2])N[*:1]; Palmitoyl = CCCCCCCCCCCCCCCC(=O)*; αMeF = C[C@](N)(Cc1ccccc1)C(=O)O; PEG2′ = polyethylene glycol 2; αMeS = C[C@](N)(CO)C(=O)O; AEEA = NCCOCCOCC(=O)O; Aib = CC(C)(N)C(=O)O
// boundary case: cAMP production EC50 equal to 0.3 nM maps to criterion not met; strictly smaller maps to criterion met

H[Aib]QGTFTSDVSK[αMeF]LDKK([AEEA-AEEA-γGlu-C20 diacid])RAQDFVRWLLE[Aib]G-NH2 [Peptide 453] :: criterion met

Record H[αMeS]QGS[αMeF]TSDVSKILDSK([PEG2′-PEG2′-γGlu-Palmitoyl])AAQD[αMeF]VQ[Aib]IINT-NH2 [Peptide 134] : is its cAMP production EC50 strictly below 0.3 nM?
criterion met

Record H[Aib]QGTFTSDVSK[αMeF]LDTK([AEEA-AEEA-γGlu-γGlu-C20 diacid])RARDFVQWLLE[Aib]G-NH2 [Peptide 458] : is its cAMP production EC50 strictly below 0.3 nM?
criterion not met

Record H[Aib]QGTFTSDVSK[αMeF]LDSK([γGlu-γGlu-AEEA-AEEA-γGlu-γGlu-C20 diacid])RAQDFVRWLLE[Aib]G-OH [Peptide 139] : is its cAMP production EC50 strictly below 0.3 nM?
criterion not met
